Test system: K-562 leukemia
Thanks in advance; please answer with one of these: true (1) = active, false (0) = inactive

{"MOLECULE": "CCCN1C(=O)NC(=O)C(CC)(N2C(=O)c3c(F)c(F)c(F)c(F)c3C2=O)C1=O (stereo not given)", "DISCRETE LABEL": "false (0)"}
{"MOLECULE": "CC1=C2C(=C[C@@](C)(CO)[C@@H]2OC(=O)N(C)CCN(C)C(=O)OC(C)(C)C)C(=O)[C@](C)(O)C12CC2", "DISCRETE LABEL": "false (0)"}
{"MOLECULE": "Cc1c2cnccc2c(C)c2c1c1cc(C#N)ccc1n2C", "DISCRETE LABEL": "true (1)"}

Input: For c1ccc(C2ONC3=NCCN32)cc1 (stereo not given) , what call appears in the results of this test?
Output: false (0)

Input: Status in this test for Nc1nc2ccc(-c3nc4ccc5[nH]ncc5c4c4c3CCC4)cc2s1 ?
Output: true (1)

Input: Which outcome was entered for the molecule COc1ccc(-c2noc(C(=O)O)c2-c2cc(OC)c(OC)c(OC)c2)cc1 in this test?
Output: false (0)

Input: Look up the recorded call for COc1cc(C)ccc1C(=O)c1ccc(C)cc1OC in this test.
Output: false (0)

Input: Could you please tell me the result logged for CCCCN(CCCC)Cc1cc(Nc2ccnc3cc(Cl)ccc23)ccc1O in this assay?
Output: false (0)

Input: I'd appreciate the recorded outcome for O=C1/C(=C/c2ccc([N+](=O)[O-])cc2)CN(C(=O)CCN2CCC(=NO)CC2)C/C1=C\c1ccc([N+](=O)[O-])cc1 from this test.
Output: true (1)

Input: Please state the recorded outcome for this molecule: O=C(Oc1cccnc1)c1cccnc1Nc1ccnc(C(F)(F)F)c1
Output: false (0)

Numbers sourced from PubChem BioAssay (NCI).
